Measured values drawn from patent US10059668B2 for this set.

system: MV4-11 cells; assay: Inhibition of LSD1-mediated cellular proliferation, CellTiter Glo luminescence assay; assay type: cell-based, human; conditions: Homo sapiens, 168 h, Day 7, cell viability by CellTiter Glo
# if measured EC50 < 30 nM: satisfied  # else: not satisfied

Use these answered entries as a reference point.
                                   compound    class_label
0  O=C(/C=C/c1ccc(CN2CCC(CN[C@@H]3C[C@H]3c3ccccc3)CC2)cc1)NS(=O)(=O)c1ccccc1 [Example 48]      satisfied
1  CS(=O)(=O)NC(=O)c1ccc(CN2CCC(N[C@@H]3C[C@H]3c3ccccc3)CC2)cc1 [Example 34]  not satisfied
2  CS(=O)(=O)NC(=O)c1ccc(CN2CCC(CN[C@@H]3C[C@H]3c3ccccc3)CC2)cc1 [Example 53]      satisfied
3  CS(=O)(=O)NC(=O)Cc1ccc(CN2CCC(CN[C@@H]3C[C@H]3c3ccccc3)CC2)cc1 [Example 57]      satisfied
4  C(=C\c1cccc(CN2CCC(N[C@@H]3C[C@H]3c3ccccc3)CC2)c1)/c1ccccc1 (relative stereo) [Example 13]  not satisfied

Please find the next compound below.
Ask: Threshold test, EC50 < 30 nM: CS(=O)(=O)NC(=O)/C=C/c1ccc(CN2CCC(CN[C@@H]3C[C@H]3c3ccccc3)CC2)cc1 [Example 49]
Reply: satisfied
